targetDesc: T1, human GHRH receptor (human pituitary membrane homogenates) (human, UniProt Q02643 23-423)
T1 construct: whole, on cells; Native receptor in human pituitary membrane homogenates, not on intact cells; also called hGHRH receptor
T1 sequence (looked up): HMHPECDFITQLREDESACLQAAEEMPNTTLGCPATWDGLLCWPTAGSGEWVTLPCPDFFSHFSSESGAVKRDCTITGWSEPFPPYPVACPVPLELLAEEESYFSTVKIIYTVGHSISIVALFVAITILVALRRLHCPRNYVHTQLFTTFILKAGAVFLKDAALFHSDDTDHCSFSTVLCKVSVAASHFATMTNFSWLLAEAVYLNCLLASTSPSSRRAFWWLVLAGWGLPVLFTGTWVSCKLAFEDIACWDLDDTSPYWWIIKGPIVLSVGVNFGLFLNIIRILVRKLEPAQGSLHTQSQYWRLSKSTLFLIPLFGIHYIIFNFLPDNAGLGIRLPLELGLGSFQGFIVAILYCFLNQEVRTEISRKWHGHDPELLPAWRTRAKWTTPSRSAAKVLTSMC
experimentDescription: radioligand competition vs 125I-JV-1-42 (0.2 nM), human pituitary membranes
Excerpt: Normal human pituitaries were purchased from the National Hormone and Peptide Program (A. F. Parlow, Los Angeles, County Harbor-UCLA Medical Center, Torrance, Calif.).
Non-standard residues stand in square brackets, D forms with d. No end group written: not given here. *: point of attachment. Phe(F5) = N[C@@H](Cc1c(F)c(F)c(F)c(F)c1F)C(=O)O; NMeY = CN[C@@H](Cc1ccc(O)cc1)C(=O)O; Agmatine = N=C(N)NCCCCN*; Nle = CCCC[C@H](N)C(=O)O; Orn = NCCC[C@H](N)C(=O)O; Abu = CC[C@H](N)C(=O)O; GABA = NCCCC(=O)O
readoutKind: Relative affinity (Binding potency) vs JI-38 (fold)

binder	testResult
[NMeY][dA]DAIFTNSYR[Orn]VL[Abu]QLSAR[Orn]LLQDI[Nle]DR-NHEt (also called Peptide 28421) [P-28421 [N-Me-Tyr^1, D-Ala^2, Orn^12, Abu^15, Orn^21, Nle^27, Asp^28]hGHRH(1-29)NH-CH2-CH3]	2.96

[A] [NMeY][dA]DAIFTQSYR[Orn]VL[Abu]QLSAR[Orn]LLQDI[Nle]D[Agmatine] (also called Peptide 20361) [P-20361 [N-Me-Tyr^1, D-Ala^2, Gln^8, Orn^12, Abu^15, Orn^21, Nle^27, Asp^28, Agm^29]hGHRH(1-29)NH2]
[B] [NMeY][dA]DAIFTQSYR[Orn]VL[Abu]QLSAR[Orn]LLQDI[Nle]DR-NHMe [P-27403 [N-Me-Tyr^1, D-Ala^2, Gln^8, Orn^12, Abu^15, Orn^21, Nle^27, Asp^28]hGHRH(1-29)NH-CH3]
Compare Relative affinity (Binding potency) vs JI-38: is it lower for A or for B ? // respond with label for picked entry
A
(A: 5.3 fold, B: 27.2 fold)

[A] [NMeY][dA]DAIFTTSYR[Orn]VL[Abu]QLSAR[Orn]LLQDI[Nle]DR-NHMe (also called Peptide 27410) [P-27410 [N-Me-Tyr^1, D-Ala^2, Thr^8, Orn^12, Abu^15, Orn^21, Nle^27, Asp^28]hGHRH(1-29)NH-CH3]
[B] [NMeY][dA]DAI[Phe(F5)]TNSYR[Orn]VL[Abu]QLSAR[Orn]LLQDI[Nle]SR[GABA]-NHMe (also called Peptide 27414) [P-27414 [N-Me-Tyr^1, D-Ala^2, Fpa5^6, Orn^12, Abu^15, Orn^21, Nle^27, Gab^30]hGHRH(1-30)NH-CH3]
[C] [NMeY][dA]DAIFTQSYR[Orn]VL[Abu]QLSAR[Orn]LLQDI[Nle]DR-NHEt (also called Peptide 28420) [P-28420 [N-Me-Tyr^1, D-Ala^2, Gln^8, Orn^12, Abu^15, Orn^21, Nle^27, Asp^28]hGHRH(1-29)NH-CH2-CH3]
Rank by Relative affinity (Binding potency) vs JI-38 (largest to smallest). // format: requested-order list of labels
C, A, B
